Molecular target: T1, human GIP receptor (human, UniProt P48546 22-466)
T1 sequence (looked up): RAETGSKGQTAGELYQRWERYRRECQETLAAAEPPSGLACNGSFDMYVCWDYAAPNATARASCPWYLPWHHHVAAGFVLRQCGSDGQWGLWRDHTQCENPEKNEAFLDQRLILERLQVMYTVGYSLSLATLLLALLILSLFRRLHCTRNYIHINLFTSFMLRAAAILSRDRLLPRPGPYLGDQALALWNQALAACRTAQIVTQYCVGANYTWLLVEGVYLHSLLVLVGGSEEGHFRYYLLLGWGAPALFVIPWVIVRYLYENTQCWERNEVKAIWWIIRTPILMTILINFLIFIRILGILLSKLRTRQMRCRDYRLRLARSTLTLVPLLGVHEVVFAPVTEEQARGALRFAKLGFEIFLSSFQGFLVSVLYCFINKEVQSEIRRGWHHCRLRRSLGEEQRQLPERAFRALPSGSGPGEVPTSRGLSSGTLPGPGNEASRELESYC
Test: cell-based or functional assay
*1 amine or outer side, *2 acyl side, *3 side chain or, on linkers, in order; H or OH if unused. Where no end group is shown, it is not given here. Side-chain parts run from the residue outwards. [ ]: non-standard residue; d: D form. The star is where a group is joined. αMePhe(2-F) = C[C@](N)(Cc1ccccc1F)C(=O)O; γGlu = O=C(O)[C@H](CCC(=O)[*:2])N[*:1]; C14 diacid = O=C(O)CCCCCCCCCCCCC(=O)*; αMeF = C[C@](N)(Cc1ccccc1)C(=O)O; αMeL = CC(C)C[C@](C)(N)C(=O)O; Orn = NCCC[C@H](N)C(=O)O; AEEA = NCCOCCOCC(=O)O; Aib = CC(C)(N)C(=O)O
Values of EC50, cAMP strictly less than 0.03 nM map to Fulfilled, and values of at least 0.03 nM map to Not fulfilled.

{"columns": ["binder", "assigned_label"],
 "data": [
  ["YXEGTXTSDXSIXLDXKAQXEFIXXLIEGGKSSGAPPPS (Aib2, αMeF(2F)6, Bzt10, αMeL13, Orn16, Aib20, D-Glu24, αMeY25, K17 and K31: K(AEEA2-(γ-Glu)-CO-(CH2)12-CO2H), C-terminal NH2) [Example 142]", "Not fulfilled"],
  ["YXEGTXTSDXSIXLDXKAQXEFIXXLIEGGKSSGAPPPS (Aib2, αMeF(2F)6, 4Pal10, αMeL13, Orn16, Aib20, D-Glu24, αMeY25, K17 and K31: K(AEEA2-(γ-Glu)-(8-(4-carboxyphenoxy)octanoyl)), C-terminal NH2) [Example 126]", "Not fulfilled"],
  ["Y[Aib]EGT[αMePhe(2-F)]TSDV[Aib]I[αMeL]LD[Orn]K([AEEA-AEEA-γGlu-C14 diacid])AQ[Aib]E[αMeF]IK([AEEA-AEEA-γGlu-C14 diacid])[αMeF]LIEGGPSSGAPPPS-NH2 [Example 123]", "Not fulfilled"],
  ["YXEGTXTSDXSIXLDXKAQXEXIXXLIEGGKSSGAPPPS (Aib2, αMeF(2F)6, 4Pal10, αMeL13, Orn16, Aib20, 2ClPhe22, D-Glu24, αMeY25, K17 and K31: K(AEEA2-(γ-Glu)-CO-(CH2)12-CO2H), C-terminal NH2) [Example 61]", "Fulfilled"],
  ["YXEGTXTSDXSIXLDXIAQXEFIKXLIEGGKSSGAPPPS (Aib2, αMeF(2F)6, 4Pal10, αMeL13, Orn16, Aib20, αMeY25, K24 and K31: K(AEEA2-(γ-Glu)-CO-(CH2)12-CO2H), C-terminal NH2) [Example 71]", "Fulfilled"]
]}
